Where these numbers come from: ChEMBL document CHEMBL1137579

System: Caco-2
test: Permeability across Caco-2 cell membrane
Format: ADME, cell-based
condition-summary: human
Measured permeability of individual entries
endpoint: permeability

>  <smiles-record>
CNCCC(=O)N[C@H](c1cc(C)ccc1N1CCN(C(=O)[C@H](C)Cc2ccc(Cl)cc2)CC1)C(C)C

>  <result>
1.2 10^-6 cm/s

$$$$
>  <smiles-record>
Cc1ccc(N2CCN(C(=O)[C@H](C)Cc3ccc(Cl)cc3C)CC2)c([C@@H](NC(=O)CCN(C)C)C(C)C)c1

>  <result>
1.9 10^-6 cm/s

$$$$
>  <smiles-record>
Cc1ccc(N2CCN(C(=O)[C@H](C)Cc3ccc(Cl)cc3)CC2)c([C@@H](NC(=O)CCN)C(C)C)c1

>  <result>
0.3 10^-6 cm/s

$$$$
>  <smiles-record>
CNCCN[C@H](c1cc(C)ccc1N1CCN(C(=O)[C@H](C)Cc2ccc(Cl)cc2F)CC1)C(C)C

>  <result>
0.3 10^-6 cm/s

$$$$
>  <smiles-record>
Cc1ccc(N2CCN(C(=O)[C@H](C)Cc3ccc(Cl)cc3)CC2)c([C@@H](NC(=O)CCN(C)C)C(C)C)c1

>  <result>
6.2 10^-6 cm/s

$$$$
>  <smiles-record>
Cc1ccc(N2CCN(C(=O)[C@H](C)Cc3ccc(Cl)cc3)CC2)c([C@@H](N)C(C)C)c1

>  <result>
5 10^-6 cm/s

$$$$
>  <smiles-record>
CNCC(=O)N[C@H](c1cc(C)ccc1N1CCN(C(=O)[C@H](C)Cc2ccc(Cl)cc2F)CC1)C(C)C

>  <result>
0.8 10^-6 cm/s

$$$$

* * *

test: Oral bioavailability in rat at 10 mg/kg, po
Format: ADME, organism-based
condition-summary: in vivo
Measured bioavailability of individual entries
endpoint: bioavailability

>  <smiles-record>
Cc1ccc(N2CCN(C(=O)[C@H](C)Cc3ccc(Cl)cc3C)CC2)c([C@@H](NC(=O)CCN(C)C)C(C)C)c1

>  <result>
5.6%

$$$$
>  <smiles-record>
CNCCN[C@H](c1cc(C)ccc1N1CCN(C(=O)[C@H](C)Cc2ccc(Cl)cc2F)CC1)C(C)C

>  <result>
13%

$$$$
>  <smiles-record>
Cc1ccc(N2CCN(C(=O)[C@H](C)Cc3ccc(Cl)cc3)CC2)c([C@@H](NC(=O)CCN(C)C)C(C)C)c1

>  <result>
43%

$$$$
>  <smiles-record>
CNCCC(=O)N[C@H](c1cc(C)ccc1N1CCN(C(=O)[C@H](C)Cc2ccc(Cl)cc2)CC1)C(C)C

>  <result>
15%

$$$$
>  <smiles-record>
Cc1ccc(N2CCN(C(=O)[C@H](C)Cc3ccc(Cl)cc3F)CC2)c([C@@H](NC(=O)CCN(C)C)C(C)C)c1

>  <result>
13%

$$$$

* * *

test: Ratio of drug level in brain to plasma in rat at 5 mg/kg, iv or 10 mg/kg, po after 4 hrs
Assay type: ADME, organism-based

>  <smiles-record>
Cc1ccc(N2CCN(C(=O)[C@H](C)Cc3ccc(Cl)cc3)CC2)c([C@@H](NC(=O)CCN(C)C)C(C)C)c1

>  <Kp at 4 h>
0.4

$$$$

* * *

test: Half life in rat at 2.5 mg/kg, iv or 10 mg/kg, po
Format: ADME, organism-based
condition-summary: in vivo
endpoint: half-life (h)

>  <smiles-record>
CNCCN[C@H](c1cc(C)ccc1N1CCN(C(=O)[C@H](C)Cc2ccc(Cl)cc2F)CC1)C(C)C

>  <measured-number>
17

$$$$
